Reference for the values: ChEMBL document CHEMBL5154666

experiment: Inhibition of Cy3-labeled mouse preE-let-7f-1 miRNA binding to human LIN28A (16 to 187 residues) expressed in Escherichia coli BL21 (DE3) at 75 uM preincubated for 2 hrs followed by miRNA addition and measured after 15 mins by electrophoretic mobility shift assay relative to control
outcome.measure: inhibition

[
  {
    "smiles.str": "CCOc1cccc2c1N[C@@H](c1cccnc1)[C@H]1CC=C[C@@H]21",
    "endpoint.result": "< 5%"
  },
  {
    "smiles.str": "N#Cc1ccc2c(c1)[C@@H]1C=CC[C@@H]1[C@H](c1ccc(C(=O)O)cc1)N2",
    "endpoint.result": "< 5%"
  },
  {
    "smiles.str": "COc1cc2c(c(OC)c1OC)[C@@H]1C=CC[C@@H]1[C@H](c1ccc(C(=O)O)cc1)N2",
    "endpoint.result": "< 5%"
  }
]

Ask | I'd like to know its inhibition. The compound in question is CCOc1cccc2c1N[C@@H](c1ccc(C(F)(F)F)cc1)[C@H]1CC=C[C@@H]21
Reply | < 5%

Ask | Consider next the compound CCOc1cccc2c1N[C@@H](c1ccc(C#N)cc1)[C@H]1CC=C[C@@H]21 in the same way.
Reply | < 5%

Ask | Okay, and CCOc1cccc2c1N[C@@H](C(=O)O)[C@H]1CC=C[C@@H]21 ?
Reply | 86%

Ask | Next compound: CCOc1cccc2c1N[C@@H](c1cccc(O)c1)[C@H]1CC=C[C@@H]21
Reply | < 5%

Ask | // next record CCOc1cccc2c1N[C@@H](c1ccc(C(=O)O)cc1)[C@H]1CC=C[C@@H]21
Reply | 53%

Ask | Quick one: CC(=O)c1ccc2c(c1)N[C@@H](c1ccc(C(=O)O)cc1)[C@H]1CC=C[C@@H]21
Reply | < 5%

Ask | Follow-up item: CC(=O)c1ccc2c(c1)[C@@H]1C=CC[C@@H]1[C@H](c1ccc(C(=O)O)cc1)N2
Reply | < 5%
